Target: GDP-KRAS G12V (Homo sapiens, UniProt P01116, G12V)
Sequence (P01116 1-169 isoform P01116-2 G12V): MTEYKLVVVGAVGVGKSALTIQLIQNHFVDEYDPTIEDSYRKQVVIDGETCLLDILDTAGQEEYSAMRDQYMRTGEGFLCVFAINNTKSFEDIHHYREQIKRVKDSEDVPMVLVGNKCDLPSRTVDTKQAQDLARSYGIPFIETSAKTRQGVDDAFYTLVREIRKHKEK
Experiment description: biochemical
pIC50: −log10 of the molar value.
Entries and their pIC50 values follow.

Molecule: C#Cc1c(F)ccc2cc(N)cc(-c3nc4c5c(nc(OC[C@@]67CCCN6C[C@H](F)C7)nc5c3F)N3CCCC(O)CC3N4C)c12 (stereo partly drawn)
pIC50: 7.52
--
Molecule: C#Cc1c(F)ccc2cc(N)cc(-c3nc4c5c(nc(OC[C@@]67CCCN6C[C@H](F)C7)nc5c3F)N3[C@@H](CC)CCOC[C@H]3N4C)c12
pIC50: 9.24
--
Molecule: C#Cc1c(F)ccc2cc(N)cc(-c3nc4c5c(nc(OC[C@@]67CCCN6C[C@H](F)C7)nc5c3F)N3C(COCCN3C)N4C)c12 (stereo partly drawn)
pIC50: 7.93

* * *

Each record here notes measured pIC50.
Target: GDP-KRAS G12D (Homo sapiens, UniProt P01116, G12D)
Experiment description: SOS1 catalyzed nucleotide exchange assay, GDP-KRAS G12D
Condition: read-out: Biochemical assays, IC50, KRAS G12D GDP, GDP form K-Ras G12D, TR-FRET
pIC50: −log10 of the molar value.

Compound: C#Cc1c(F)ccc2cc(N)cc(-c3nc4c5c(nc(OC[C@@]67CCCN6C[C@H](F)C7)nc5c3F)N3CCCOC[C@H]3[C@H](C)O4)c12 [Compound 18A]
Target: GDP-KRAS G12D (Homo sapiens, UniProt P01116, G12D)
pIC50: 8.27

Compound: CCc1c(F)ccc2cc(N)cc(-c3nc4c5c(nc(OC[C@@]67CCCN6C[C@H](F)C7)nc5c3F)N3CCCOC[C@H]3CO4)c12
Target: GDP-KRAS G12D (Homo sapiens, UniProt P01116, G12D)
pIC50: 8.91

Compound: C#Cc1c(F)ccc2cc(N)cc(-c3nc4c5c(nc(OC[C@@]67CCCN6C[C@H](F)C7)nc5c3F)N3CC(C)COCC3N4C)c12 (single isomer, unassigned)
Target: GDP-KRAS G12D (Homo sapiens, UniProt P01116, G12D)
pIC50: 8.46

Compound: C#Cc1c(F)ccc2cc(N)cc(-c3nc4c5c(nc(OCC67CC(=C)CN6CC(OC)C7)nc5c3F)N3CCCOCC3N4C)c12 (stereo not drawn)
Target: GDP-KRAS G12D (Homo sapiens, UniProt P01116, G12D)
pIC50: 8.78

Compound: C#Cc1c(F)ccc2cc(N)cc(-c3nc4c5c(nc(OCC67CCCN6CC(F)C7)nc5c3F)N3CCCCC(F)C3N4C)c12 (stereo not drawn) [Compound 40B]
Target: GDP-KRAS G12D (Homo sapiens, UniProt P01116, G12D)
pIC50: 8.81

Compound: C#Cc1c(F)ccc2cc(N)cc(-c3nc4c5c(nc(OCC67CCCN6CC(F)C7)nc5c3F)N3C(C#N)CCCCC3N4C)c12 (stereo not drawn) [Compound 168B]
Target: GDP-KRAS G12D (Homo sapiens, UniProt P01116, G12D)
pIC50: 6.30

Compound: C#Cc1c(F)ccc2cc(N)cc(-c3nc4c5c(nc(OCC67CCCN6CC(F)C7)nc5c3F)N3C(C(F)F)CCOCC3N4C)c12 (stereo not drawn) [Compound 52B]
Target: GDP-KRAS G12D (Homo sapiens, UniProt P01116, G12D)
pIC50: 8.49

Compound: C#Cc1c(F)ccc2cc(N)cc(-c3nc4c5c(nc(OC[C@@]67CCCN6C[C@H](F)C7)nc5c3F)N3[C@@H](COCC[C@@H]3C)CO4)c12 [Compound 38A]
Target: GDP-KRAS G12D (Homo sapiens, UniProt P01116, G12D)
pIC50: 9.34

Compound: C#Cc1c(F)ccc2cc(N)cc(-c3nc4c5c(nc(OC[C@@]67CCCN6C[C@H](F)C7)nc5c3F)N3CCCC[C@@H](Cl)[C@@H]3N4C)c12 [Compound 62A]
Target: GDP-KRAS G12D (Homo sapiens, UniProt P01116, G12D)
pIC50: 6.15

Compound: C#Cc1c(F)ccc2cc(N)cc(-c3c(Cl)c4c5c(nc(OCC67CCCN6CC(F)C7)nc5c3F)N3CCCOCC3CO4)c12 (single isomer, unassigned) [Compound 11B]
Target: GDP-KRAS G12D (Homo sapiens, UniProt P01116, G12D)
pIC50: 8.24

Compound: C=Cc1c(F)ccc2cc(N)cc(-c3nc4c5c(nc(OC[C@@]67CCCN6C[C@H](F)C7)nc5c3F)N3CCCOC[C@H]3CO4)c12
Target: GDP-KRAS G12D (Homo sapiens, UniProt P01116, G12D)
pIC50: 8.42

Compound: C#Cc1c(F)ccc2cc(N)cc(-c3nc4c5c(nc(OC[C@@]67CCCN6C[C@H](F)C7)nc5c3F)N3CC(F)(F)CCC[C@@H]3N4C)c12 [Compound 106A]
Target: GDP-KRAS G12D (Homo sapiens, UniProt P01116, G12D)
pIC50: 6.20

* * *

Hi! I'm sharing some IC50 results obtained with AsPC-1 cells (K-Ras G12D).

Compound: C#Cc1c(F)ccc2cc(N)cc(-c3nc4c5c(nc(OCC67CCCN6CC(F)C7)nc5c3F)N3CCCCCC3CO4)c12 (centres unmarked) [Compound 27B]
IC50: 110 nM

Compound: C#Cc1c(F)ccc2cc(N)cc(-c3nc4c5c(nc(OC[C@@]67CCCN6C[C@H](F)C7)nc5c3F)N3CCC=C[C@H](F)[C@H]3N4C)c12 [Compound 108A]
IC50: 62.7 nM

Compound: C#Cc1c(F)ccc2cc(N)cc(-c3nc4c5c(nc(OCC67CCCN6CC(F)C7)nc5c3F)N3C(C(F)F)CCOCC3N4C)c12 (centres unmarked) [Compound 52B]
IC50: 111 nM

Compound: C#Cc1c(F)ccc2cc(N)cc(-c3nc4c5c(nc(OC[C@@]67CCCN6C[C@H](F)C7)nc5c3F)N3CCC(F)CCC3N4C)c12 (some centres unmarked) [Compound 77]
IC50: 103 nM

Compound: C#Cc1c(F)ccc2cc(N)cc(-c3nc4c5c(nc(OCC67CC(=C)CN6CC(OC)C7)nc5c3F)N3CCCOCC3N4C)c12 (centres unmarked) [Compound 169]
IC50: 93.6 nM

* * *

System: SW620 cells (K-Ras G12V)
Experiment description: Phospho-ERK1/2(THR202/TYR204) HTRF assay, SW620
Type: cell-based
Condition: Homo sapiens, SW-620, 2 hours incubation, read-out: pERK, IC50, SW620
Labelling field: enter Criterion met if recorded IC50 is less than 9 nM. Enter Criterion not met if it equals or exceeds that cut-off.

Compound: C#Cc1c(F)ccc2cc(N)cc(-c3nc4c5c(nc(OC[C@@]67CCCN6C[C@H](F)C7)nc5c3F)N3CCCOCC3N4)c12 (stereo partly shown)
Group label: Criterion not met
//
Compound: [2H]C([2H])([2H])N1c2nc(-c3cc(N)cc4ccc(F)c(C#C)c34)c(F)c3nc(OC[C@@]45CCCN4C[C@H](F)C5)nc(c23)N2CCCOC[C@H]21
Group label: Criterion met
//
Compound: C#Cc1c(F)ccc2cc(N)cc(-c3nc4c5c(nc(OC[C@@]67CCCN6C[C@H](F)C7)nc5c3F)N3[C@@H](C)CCOC[C@H]3N4C3CC3)c12
Group label: Criterion not met
//
Compound: C[C@H]1CCOC[C@H]2N(C)c3nc(-c4cc(O)cc5ccc(F)c(Cl)c45)c(F)c4nc(OC[C@@]56CCCN5C[C@H](F)C6)nc(c34)N12
Group label: Criterion not met
//
Compound: C#Cc1c(F)ccc2cc(N)cc(-c3nc4c5c(nc(OC[C@@]67CCCN6C[C@H](F)C7)nc5c3F)N3CCOCCC3N4C)c12 (stereo partly shown)
Group label: Criterion not met
//
Compound: C#Cc1c(F)ccc2cc(N)cc(-c3nc4c5c(nc(OC[C@@]67CCCN6C[C@H](F)C7)nc5c3F)N3CCCC[C@H](F)[C@H]3N4C)c12 [Compound 40A]
Group label: Criterion met
//
Compound: CCc1c(F)ccc2cc(N)cc(-c3nc4c5c(nc(OC[C@@]67CCCN6C[C@H](F)C7)nc5c3F)N3[C@@H](C)CCOC[C@H]3N4C)c12
Group label: Criterion not met

* * *

The following compounds are shown together with reported IC50 values.
Target: GppNp-KRAS G12D (Homo sapiens, UniProt P01116, G12D)
Sequence (P01116 1-169 isoform P01116-2 G12D): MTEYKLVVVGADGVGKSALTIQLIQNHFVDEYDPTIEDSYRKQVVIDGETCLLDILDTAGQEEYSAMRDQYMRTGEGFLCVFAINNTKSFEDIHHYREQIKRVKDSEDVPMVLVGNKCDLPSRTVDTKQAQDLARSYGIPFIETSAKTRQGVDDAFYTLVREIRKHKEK
Experiment description: biochemical

Compound: N#Cc1c(N)sc2c(F)ccc(-c3c(F)c4c5c(nc(OC[C@@]67CCCN6C[C@H](F)C7)nc5c3F)N3CCCOC[C@H]3CO4)c12 (single isomer, unassigned) [Compound 163B]
Target: GppNp-KRAS G12D (Homo sapiens, UniProt P01116, G12D)
Result unit: nM
IC50: 8.04
//
Compound: C#Cc1c(F)ccc2cc(N)cc(-c3nc4c5c(nc(OC[C@@]67CCCN6C[C@H](F)C7)nc5c3F)N3CCC(F)CCC3N4C)c12 (stereo partly shown) [Compound 77]
Target: GppNp-KRAS G12D (Homo sapiens, UniProt P01116, G12D)
Result unit: nM
IC50: 177
//
Compound: C#Cc1c(F)ccc2cc(N)cc(-c3nc4c5c(nc(OC[C@@]67CCCN6C[C@H](F)C7)nc5c3F)N3CCCOCC3N4)c12 (stereo partly shown) [Compound 113]
Target: GppNp-KRAS G12D (Homo sapiens, UniProt P01116, G12D)
Result unit: nM
IC50: 623
//
Compound: C#Cc1c(F)ccc2cc(N)cc(-c3nc4c5c(nc(OC[C@@]67CCCN6C[C@H](F)C7)nc5c3F)N3C/C(=N\OC)COC[C@H]3N4C)c12 [Compound 137]
Target: GppNp-KRAS G12D (Homo sapiens, UniProt P01116, G12D)
Result unit: nM
IC50: 210
